# Test system: German Cockroach [Blattella germanica (Linne)]
# Assay Protocol: German Cockroach spray
# Assay type: in vivo
# Test Context: spray on 1-month-old nymphs; mortality after 7 days
Listed next: entries and their corresponding Insecticide Activity - Approximate LD50, GR (German Cockroach).

Lookup: What value of Insecticide Activity - Approximate LD50, GR (German Cockroach) has been reported for the following compound? CCOP(=S)(OCC)SCC(=O)N=C(OC)N(CC)c1cccc(C)c1 [Compound 18]
Found: .1%

Lookup: What value of Insecticide Activity - Approximate LD50, GR (German Cockroach) has been reported for the following compound? C=CCN(CC=C)C(=NC(=O)CSP(=S)(OC)OC)OC [Compound 2]
Found: > .1%

Lookup: What value of Insecticide Activity - Approximate LD50, GR (German Cockroach) has been reported for the following compound? CCN(CC)C(=NC(=O)CSP(=S)(OC)OC)OC [Compound 6]
Found: > .1%

Lookup: What value of Insecticide Activity - Approximate LD50, GR (German Cockroach) has been reported for the following compound? CCOP(=S)(OCC)SCC(=O)N=C(OC)N1CCOCC1 [Compound 4]
Found: > .1%

* * *

Listed next: entries and their corresponding Insecticide Activity - Approximate LD50, GPA (Green Peach Aphid).
# Test system: Green Peach Aphid [Myzus persicae (Sulzer)]
# Assay Protocol: Green Peach Aphid spray on radish plants
# Assay type: in vivo
# Test Context: sprayed to runoff on radish plants; mortality after 48 hours

In the examples that follow, each entry is paired with its recorded Insecticide Activity - Approximate LD50, GPA (Green Peach Aphid).
CCOP(=S)(OCC)SCC(=O)N=C(OC)N1CCCCC1 :: .008%
CCOP(=S)(OCC)SCC(=O)N=C(OC)N(C)c1ccccc1 :: .03%
CCOP(=S)(OCC)SCC(=O)N=C(OC)N(CC)CC :: .03%
CCOP(=S)(OCC)SCC(=O)N=C(OC)N1CCOCC1 :: > .05%
CCN(CC)C(=NC(=O)CSP(=S)(OC)OC)OC :: > .05%
CCOP(=S)(OCC)SCC(=O)N=C(OC)N(CC)c1cccc(C)c1 :: .005%

Lookup: What value of Insecticide Activity - Approximate LD50, GPA (Green Peach Aphid) has been reported for the following compound? C=CCN(CC=C)C(=NC(=O)CSP(=S)(OCC)OCC)OC
Found: > .05%

Lookup: What value of Insecticide Activity - Approximate LD50, GPA (Green Peach Aphid) has been reported for the following compound? CCOP(=S)(OCC)SCC(=O)N=C(OC)N(CC)c1ccccc1
Found: .03%

Lookup: What value of Insecticide Activity - Approximate LD50, GPA (Green Peach Aphid) has been reported for the following compound? C=CCN(C(=NC(=O)CSP(=S)(OC)OC)OC)c1ccccc1
Found: .03%

Lookup: What value of Insecticide Activity - Approximate LD50, GPA (Green Peach Aphid) has been reported for the following compound? CCN(C(=NC(=O)CSP(=S)(OC)OC)OC)c1cccc(C)c1
Found: .03%
